- TARGET: T1, scMtRNAP ΔHNG (UniProt P13433 1-640+644-1351, internal_change)
- T1 sequence: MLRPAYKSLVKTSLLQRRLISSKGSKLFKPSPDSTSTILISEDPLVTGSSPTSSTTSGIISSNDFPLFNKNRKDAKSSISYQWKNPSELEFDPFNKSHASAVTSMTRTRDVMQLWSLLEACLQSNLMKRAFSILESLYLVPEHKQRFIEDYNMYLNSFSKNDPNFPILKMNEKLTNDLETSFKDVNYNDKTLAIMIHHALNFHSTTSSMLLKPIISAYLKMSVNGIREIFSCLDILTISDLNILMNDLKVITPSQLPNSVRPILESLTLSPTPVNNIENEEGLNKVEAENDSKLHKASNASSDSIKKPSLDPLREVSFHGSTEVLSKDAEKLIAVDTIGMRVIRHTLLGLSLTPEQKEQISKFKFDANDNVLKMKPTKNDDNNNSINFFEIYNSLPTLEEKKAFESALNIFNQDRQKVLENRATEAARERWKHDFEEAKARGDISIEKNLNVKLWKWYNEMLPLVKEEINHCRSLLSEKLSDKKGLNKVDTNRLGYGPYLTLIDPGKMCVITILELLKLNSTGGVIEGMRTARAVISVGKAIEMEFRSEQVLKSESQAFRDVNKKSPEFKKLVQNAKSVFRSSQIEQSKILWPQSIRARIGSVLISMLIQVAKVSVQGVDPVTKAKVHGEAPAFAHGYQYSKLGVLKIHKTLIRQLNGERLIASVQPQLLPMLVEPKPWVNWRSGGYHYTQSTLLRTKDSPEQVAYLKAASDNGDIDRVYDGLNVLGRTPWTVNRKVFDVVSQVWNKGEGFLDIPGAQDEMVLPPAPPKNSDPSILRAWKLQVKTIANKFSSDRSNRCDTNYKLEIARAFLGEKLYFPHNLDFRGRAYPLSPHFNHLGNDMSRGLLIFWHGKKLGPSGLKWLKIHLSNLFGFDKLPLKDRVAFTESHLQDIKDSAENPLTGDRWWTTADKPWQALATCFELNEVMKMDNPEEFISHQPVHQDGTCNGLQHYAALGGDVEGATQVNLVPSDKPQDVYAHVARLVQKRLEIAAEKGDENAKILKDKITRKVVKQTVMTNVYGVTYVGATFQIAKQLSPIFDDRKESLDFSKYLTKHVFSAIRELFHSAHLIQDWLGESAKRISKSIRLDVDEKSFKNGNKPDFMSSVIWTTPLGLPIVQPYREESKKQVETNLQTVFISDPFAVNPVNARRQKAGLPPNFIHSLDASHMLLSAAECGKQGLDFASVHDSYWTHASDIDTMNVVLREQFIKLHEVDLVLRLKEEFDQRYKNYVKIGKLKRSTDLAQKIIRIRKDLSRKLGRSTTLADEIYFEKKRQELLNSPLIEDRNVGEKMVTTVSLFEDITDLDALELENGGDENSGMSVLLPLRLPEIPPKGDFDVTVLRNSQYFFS
- PROCEDURE_DETAILS: EMSA
pKd: −log10 of the molar value.
ASSAY_ENDPOINT: pKd

INSERT INTO assay_data (binder, assay_endpoint, measured_value) VALUES
  ('33 bp Bubble (pre-melted) promoter (dsDNA) DNA 1: CGCGTAAAACTATTCTTTATTACTTATATCGCG DNA 2: CGCGATATGCAGCTTAAAGAATAGTTTTACGCG', 'pKd', 5.28);
